Assay: Pharmacokinetics (PK) study in animals
Type: in vivo
Conditions: both sexes, dog; beagle dogs, oral, 30 mg/kg, plasma
REPORTED ENDPOINT: Cmax (ng/mL)

COMPOUND: CC#CC(=O)N1CC[C@@H](n2cc(-c3ccc(Oc4c(F)cccc4F)cc3)c3c(N)n[nH]c(=O)c32)C1 [Crystal form of compound A]
QUANTITATIVE RESULT: 630

###

Assay: Pharmacokinetics (PK) study in animals
Format: in vivo
Conditions: both sexes, dog; beagle dogs, oral, 30 mg/kg, plasma

MOLECULE: CC#CC(=O)N1CC[C@@H](n2cc(-c3ccc(Oc4c(F)cccc4F)cc3)c3c(N)n[nH]c(=O)c32)C1 [Crystal form of compound A]
UNIT OF MEASURE: ng·h/mL
AUC(0-inf): 3870

###

Experiment: Pharmacokinetics (PK) study in animals
Assay type: in vivo
Details: both sexes, dog; beagle dogs, oral, 30 mg/kg, plasma
REPORTED ENDPOINT: half-life (min)

COMPOUND: CC#CC(=O)N1CC[C@@H](n2cc(-c3ccc(Oc4c(F)cccc4F)cc3)c3c(N)n[nH]c(=O)c32)C1 [Crystal form of compound A]
UNIT OF MEASURE: min
QUANTITATIVE RESULT: 181

Origin of values: patent US11304945B2
